Ratio pH 7.4/6.0 (EC50) values for the binders below.
- experimental.target: T1, Apolipoprotein E4 (human, UniProt P02649 19-317)
- T1 construct: also called ApoE4; hApoE4
- T1 sequence (P02649 19-317 C130R limits assumed): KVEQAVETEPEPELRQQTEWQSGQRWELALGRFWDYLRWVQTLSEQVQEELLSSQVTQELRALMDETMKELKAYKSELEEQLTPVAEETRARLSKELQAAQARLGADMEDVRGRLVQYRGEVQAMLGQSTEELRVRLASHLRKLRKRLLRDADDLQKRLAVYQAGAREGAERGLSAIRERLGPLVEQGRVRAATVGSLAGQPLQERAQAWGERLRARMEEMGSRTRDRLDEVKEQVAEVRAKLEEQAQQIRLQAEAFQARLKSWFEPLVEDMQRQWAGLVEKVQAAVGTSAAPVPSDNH
- assay.remarks: pH affinity ELISA, coated hApoE4
Enter your answer as a number in ratio; do not include the unit.

Use these answered entries as a reference point.
binder: BAP191-01-CPE-HC-M034D (antibody, V domains shown) VH: QIQLVQSGPELKKPGETVKISCKASGYTFTTAGDQWVQKMPGKGFKWIGWINTHSGEPKYAEDFKGRFAFSLETSASTAYLQISNLKNEDTATYFCARMGGYAMDYWGQGTSVTVSS VL: DIKLTQSPSSMYASLGERVTITCKASEDINSYLSWFQQKPGKSPKTLIYRANRLVDGVPSRFSGSGSGQDYSLTISSLEYEDMGIYYCLQYDEFPLTFGAGTKLELT
unit.string: ratio
data.value: 3.01

binder: BAP191.01-CPE-LC-P095D (antibody, V domains shown) VH: QIQLVQSGPELKKPGETVKISCKASGYTFTTAGMQWVQKMPGKGFKWIGWINTHSGEPKYAEDFKGRFAFSLETSASTAYLQISNLKNEDTATYFCARMGGYAMDYWGQGTSVTVSS VL: DIKLTQSPSSMYASLGERVTITCKASEDINSYLSWFQQKPGKSPKTLIYRANRLVDGVPSRFSGSGSGQDYSLTISSLEYEDMGIYYCLQYDEFDLTFGAGTKLELT
unit.string: ratio
data.value: 1.65

binder: Anti-ApoE wildtype antibody BAP191.01-WT (antibody, V domains shown, also called benchmark; parent) VH: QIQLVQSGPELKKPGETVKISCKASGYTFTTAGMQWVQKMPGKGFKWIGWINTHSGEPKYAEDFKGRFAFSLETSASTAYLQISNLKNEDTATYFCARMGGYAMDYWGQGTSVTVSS VL: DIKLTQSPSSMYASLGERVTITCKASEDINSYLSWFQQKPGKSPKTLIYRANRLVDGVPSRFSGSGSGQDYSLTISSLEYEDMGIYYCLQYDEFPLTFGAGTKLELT
unit.string: ratio
data.value: 0.46

For reference, reported Ratio pH 7.4/6.0 (EC50) for BAP191.01-CPE-HC-M104E (antibody, V domains shown) VH: QIQLVQSGPELKKPGETVKISCKASGYTFTTAGMQWVQKMPGKGFKWIGWINTHSGEPKYAEDFKGRFAFSLETSASTAYLQISNLKNEDTATYFCARMGGYAEDYWGQGTSVTVSS VL: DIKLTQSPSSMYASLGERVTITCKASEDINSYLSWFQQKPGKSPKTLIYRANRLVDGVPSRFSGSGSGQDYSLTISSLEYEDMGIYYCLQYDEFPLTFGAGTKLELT stands at 18400
